# targetUnderTest: human 20S proteasome (hs20S), chymotrypsin-like β5-subunits (Homo sapiens, UniProt P20618+P28074)
# Construct: purchased R&D
# protocolSummary: In vitro 20S peptidase inhibition kinetics, chymotrypsin-like activity (Suc-LLVY-AMC)
# Type: biochemical
# assayContext: second-order rate constant, Suc-LLVY-AMC substrate, 37° C.
quantityKind: hs20S kin/Ki (M⁻¹ s⁻¹)

Take a look at these entries with their results.
hs20S kin/Ki reading for "COC(=O)[C@@H](NC(=O)N[C@@H](Cc1cccc(Cl)c1)C(=O)N[C@H]1CCCCNC(=O)/C=C/[C@H](Cc2ccccc2F)NC1=O)C(C)C" : 4656

Measured hs20S kin/Ki, "COC(=O)[C@@H](NC(=O)N[C@@H](Cc1ccccc1F)C(=O)N[C@H]1CCCCNC(=O)/C=C/[C@H](Cc2cccc(F)c2)NC1=O)C(C)C" : 12202

For record "COC(=O)[C@@H](NC(=O)N[C@@H](Cc1cccc(C)c1)C(=O)N[C@H]1CCCCNC(=O)/C=C/[C@H](Cc2ccccc2F)NC1=O)C(C)C" the listed hs20S kin/Ki is 3797

Reported hs20S kin/Ki for "COC(=O)[C@@H](NC(=O)N[C@@H](Cc1ccc(Cl)cc1)C(=O)N[C@H]1CCCCNC(=O)/C=C/[C@H](Cc2cccc(F)c2)NC1=O)C(C)C" was 12605

Entry "COC(=O)[C@@H](NC(=O)N[C@@H](Cc1cccc(F)c1)C(=O)N[C@H]1CCCCNC(=O)/C=C/[C@H](Cc2ccccc2F)NC1=O)C(C)C" ; hs20S kin/Ki = 2199

1: COC(=O)[C@@H](NC(=O)N[C@@H](Cc1cccc(Cl)c1)C(=O)N[C@H]1CCCCNC(=O)/C=C/[C@H](Cc2cccc(F)c2)NC1=O)C(C)C
2: COC(=O)[C@@H](NC(=O)N[C@@H](Cc1cccc(C)c1)C(=O)N[C@H]1CCCCNC(=O)/C=C/[C@H](Cc2cccc(F)c2)NC1=O)C(C)C
Please indicate which has the smaller reported hs20S kin/Ki: 1 , or 2 . Use the label to indicate which entry you chose.
1
